Measured values drawn from patent US20210380703A1 for this set.

biological target: Human Fc (human); assay: ELISA; negative control
Observation Type: optical density (OD)
Respond with the bare value in OD.

Binder: 376_G05 (antibody, V domains shown) VH: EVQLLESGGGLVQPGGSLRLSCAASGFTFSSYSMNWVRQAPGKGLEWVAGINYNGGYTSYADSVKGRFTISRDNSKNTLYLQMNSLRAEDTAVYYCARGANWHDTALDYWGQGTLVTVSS VL: DIQMTQSPSSLSASVGDRVTITCRASQSIISYVNWYQQKPGKAPKLVIYAATSRASGVPSRFSGSGSGTDFTLTISSLQPEDFATYYCQQSYESPLTFGGGTKVEIK
Units Symbol: OD
optical density: 0.252

Let us move to another entry and its optical density.
Query string: Report optical density for 369_E05 (antibody, V domains shown) VH: EVQLLESGGGLVQPGGSLRLSCAASGFTFSDYGMNWVRQAPGKGLEWVANINYNGGYKSYADSVKGRFTISRDNSKNTLYLQMNSLRAEDTAVYYCARGATWHDTHLDYWGQGTLVTVSS VL: DIQMTQSPSSLSASVGDRVTITCRASQSILTYLNWYQQKPGKAPKLLIYAATSLASGVPSRFSGSGSGTDFTLTISSLQPEDFATYYCQQSYETPLTFGGGTKVEIK please.
Result string: 0.282
